assayed-system: T1, human alpha CGRP (SEQ ID NO: 80) (human, not fully specified)
T1 construct: also called human αCGRP; hαCGRP
T1 peptide: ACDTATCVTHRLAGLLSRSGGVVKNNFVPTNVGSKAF
method-summary: SPR, 37 C, mutein captured, CGRP analyte
quantity-name: kon

Item lipocalin mutein SEQ ID NO: 10 (designed binder, biotinylated by NHS chemistry for capture in SPR) QDSTSDLIPAPPLSKVPLQQNFQDNQFHGKWYVVGWAGNTLLREDKNPTKMQATIYELKEDKSYNATWVYLSEKKCNYHIETSVPGSQPGEFTLGTTKSYPGETPILVRVVSTNYNQHAMVFFKGVSQNREIFEITLYGRTKELTSELKENFIRFSKSLGLPENHIVFPVPIDQCIDGSAWSHPQFEK : provide kon
1.26e+06 M⁻¹ s⁻¹

Item lipocalin mutein SEQ ID NO: 20 (designed binder, biotinylated by NHS chemistry for capture in SPR) QDSTSDLIPAPPLSKVPLQQNFQDNQFHGKWYVVGRAGNDTLRKDKDPEKMEATIYELKEDKSYNVTDVGFVQKKCMYVIHTFVPGSQPGEFTLGNIKSYPGVTSALVRVVSTNYNQHAMVFVKLVKQNRELFEITLYGRTKELTSELKENFIRFSKSLGLPENHIVFPVPIDQCIDGSAWSHPQFEK : provide kon
1.45e+06 M⁻¹ s⁻¹

Item lipocalin mutein SEQ ID NO: 24 (designed binder, biotinylated by NHS chemistry for capture in SPR) QDSTSDLIPAPPLSKVPLQQNFQDNQFHGKWYVVGWAGNTLLREDKDPIKMQAKIYELKEDRSYNVTWVYFAEKKCNYHIETFVPGSQPGEFTLGTIKSYPGETPILVRVVSTNYNQHAMVFFKGVNQNREIFEIILYGRTKELTNELKENFIRFSKSLGLPENHIVFPVPIDQCIDGSAWSHPQFEK : provide kon
1.6e+06 M⁻¹ s⁻¹

// data source = patent US20190338002A1
